experiment: soluble on expression in E. coli; label from the status in PepcDB or PDB records

sequence-record	soluble on expression in E. coli
MGSDKIHHHHHHMQDYYSTLIGWMIPISRAMEAHQIDLTTALKECNISQDVMTDQESRIAAEKFYNLIEYCNKKLGRHDFSILIAEQFHPGMFHALGYAMMSSNTLQDALDRIAHYKRVVSNTCQLVTYESNNQLVFEMNIFTYEGTNRPVLSLATVETFLATIIRFARELVTLDFSPEKICFAYQKPAHDVTYLEEFFNCDIEFNSDKNAIIFNFEQAQEKLMCGNPLITHSHEKMLDEFMARIDKNDLSHVIKNKIFDLLPLGAPSQIVIAEDLGMSLRNLQRKLQEQGTSYKEILESTRKKLAMDYIVQQHLSLSEIGYLVGFSSVGNFNRAFKRWTNQTPGEYRQSKKT	not soluble
MHKDIKLVKETEIRKPIGSPFIVYFSSISNNTHRFIEKLGFQHKRIPVDITQSITVSNEYVLICPTYSGGGNQVEGAVPKQVIQFLNNKHNRELCRGVIASGNTNFGDTFCLAGTVISKKLNVPLLYQFELLGTKNDVEQTQKIIANFFQNSN	soluble
MSLAHEMRDGSSRGLRIDFHVHLGVYADHKPWVTEWIKQSQPDPGEYDAYIERYSDPGAFEELLAAEGVDYACVLAELCPITTGICSNEQVEAFCKGRKRLIPFCSINPHLTTDLGGELRRLVETEGFRGLKLYPSYQHYYLNDPRVYPLYQAAQELGIPVLIHTGSSVFKGTRIKYCDPIHLDDVANDFPSLNLVMAHSGRGFWYDRAFFLSKLHSNLYMEVSGLPPSKLMTYFPELARNTDKVIFGSDWPGASQIKRNMDAIGALPLPAEGVEKILGGNAARLLNFEGHHHHHH	soluble
MSIPITVKTVADLIIGEKGIICGFTDEETSLKLLEMGCLPGCEIELDRKAPLGDPICINVCGYTLSMRLEEASTILLSLEHHHHHH	not soluble
